tested_on: NCK2 full-length recombinant protein (mouse, WT, tag-free) (mouse, UniProt O55033 1-380)
Sequence (O55033 whole entry): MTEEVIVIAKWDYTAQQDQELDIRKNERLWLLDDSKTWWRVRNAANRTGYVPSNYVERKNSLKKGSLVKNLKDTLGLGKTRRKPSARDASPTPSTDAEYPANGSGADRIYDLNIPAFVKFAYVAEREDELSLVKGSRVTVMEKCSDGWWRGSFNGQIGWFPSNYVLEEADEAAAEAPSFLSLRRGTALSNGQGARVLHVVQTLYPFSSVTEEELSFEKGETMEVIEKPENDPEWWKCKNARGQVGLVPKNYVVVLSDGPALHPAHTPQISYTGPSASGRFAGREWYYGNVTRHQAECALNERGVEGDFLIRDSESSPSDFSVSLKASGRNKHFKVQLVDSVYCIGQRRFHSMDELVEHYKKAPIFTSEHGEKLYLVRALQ
experimental_protocol: FP
No end group written: not given here.
measured_attribute: Kd (µM)
Give the number; µM is assumed, so skip it.

DIQDKPPAPPMRNTST (also: fluorescein isothiocyanate-conjugated (position not given here)) [PAK1 peptide (DIQDKPPAPPMRNTST), fluorescein isothiocyanate-conjugated] ... 36

Moving on to another binder below.
Query: Entry under review: RGQNKERPPPVPNPDY (also: fluorescein isothiocyanate-conjugated (position not given here)) [Cd3ε peptide (RGQNKERPPPVPNPDY), fluorescein isothiocyanate-conjugated] . Reported Kd?
Response: 12.7

// provenance: paper PMC7954794
